Measured pIC50 on Coagulation factor X (Homo sapiens) follows.
The quantity pIC50 is defined as the negative base-10 logarithm of the molar concentration.

Consider the worked cases shown below.
[
  {
    "compound": "C[C@@H](C(=O)N1CCOCC1)N1CC[C@H](N(Cc2ccncc2)S(=O)(=O)c2ccc3cc(Cl)ccc3c2)C1=O [GTC000029A]",
    "pIC50": 7.96
  },
  {
    "compound": "CCC(=O)CN([C@H]1CCN([C@@H](C)C(=O)N2CCOCC2)C1=O)S(=O)(=O)c1ccc(-c2ccc(Cl)s2)s1 [GTC000010A]",
    "pIC50": 7.77
  },
  {
    "compound": "C[C@@H](C(=O)N1CCOCC1)N1CC[C@H](N(CC(=O)C(C)(C)C)S(=O)(=O)c2ccc3cc(Cl)ccc3c2)C1=O [GTC000021A]",
    "pIC50": 7.77
  }
]

Task item: What pIC50 value was documented for this compound, C[C@@H](C(=O)N1CCOCC1)N1CC[C@H](N(CC(=O)OC(C)(C)C)S(=O)(=O)c2ccc3cc(Cl)ccc3c2)C1=O [GTC000022A] ?
Reply: 8.19

Task item: What measured pIC50 goes with C[C@@H](C(=O)N1CCOCC1)N1CC[C@H](N(CC#N)S(=O)(=O)c2ccc(-c3ccc(Cl)s3)s2)C1=O [GTC000008A] ?
Reply: 7.55

Task item: Suppose we examine the compound C[C@@H](C(=O)N1CCOCC1)N1CC[C@H](N(CCN2CCOCC2)S(=O)(=O)c2ccc3cc(Cl)ccc3c2)C1=O [GTC000040A] ; what pIC50 value has been reported?
Reply: 8.08

Task item: Endpoint output: pIC50 of COC(=O)CN([C@H]1CCN([C@@H](C)C(=O)N2CCOCC2)C1=O)S(=O)(=O)c1ccc2cc(Cl)ccc2c1 [GTC000001A] . Value?
Reply: 7.98

Task item: // returns reported pIC50 for input C[C@@H](C(=O)N1CCOCC1)N1CC[C@H](N(C)S(=O)(=O)/C=C/c2ccc(Cl)s2)C1=O [GTC000044A]
Reply: 6.39

Task item: Which pIC50 is listed for CCC(=O)CN([C@H]1CCN([C@@H](C)C(=O)N2CCOCC2)C1=O)S(=O)(=O)c1cc2cc(Cl)ccc2s1 [GTC000027A] ?
Reply: 6.56

Task item: For the compound shown here, COC(=O)CN([C@H]1CCN([C@@H](C)C(=O)N2CCOCC2)C1=O)S(=O)(=O)c1ccc(-c2ccc(Cl)s2)s1 [GTC000009A] , give the reported pIC50.
Reply: 7.81

---

target: Coagulation factor X (Homo sapiens, UniProt P00742); assay: D3R245
Sequence (P00742 41-179 limits assumed): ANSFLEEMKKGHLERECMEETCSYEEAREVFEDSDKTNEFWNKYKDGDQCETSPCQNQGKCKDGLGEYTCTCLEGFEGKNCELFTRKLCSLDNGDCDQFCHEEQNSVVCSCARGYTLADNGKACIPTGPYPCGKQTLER
Sequence (P00742 235-488 limits assumed): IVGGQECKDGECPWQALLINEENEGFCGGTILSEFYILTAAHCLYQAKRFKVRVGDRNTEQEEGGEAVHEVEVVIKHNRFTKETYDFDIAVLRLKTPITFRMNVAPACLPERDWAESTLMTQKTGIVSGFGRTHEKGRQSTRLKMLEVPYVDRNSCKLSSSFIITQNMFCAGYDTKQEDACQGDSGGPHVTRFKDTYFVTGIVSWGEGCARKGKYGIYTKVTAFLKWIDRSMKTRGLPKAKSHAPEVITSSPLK
endpoint.label: pIC50
Please note pIC50 is a logarithmic value: minus log10 of concentration in mol/L. Answer with that number alone.

Some compounds with recorded pIC50:
[
  {
    "compound": "C[C@@H](C(=O)N1CCOCC1)N1CC[C@H](N(Cc2nccs2)S(=O)(=O)c2ccc3cc(Cl)ccc3c2)C1=O [GTC000020A]",
    "pIC50": 7.42
  },
  {
    "compound": "C[C@@H](C(=O)N1CCOCC1)N1CC[C@H](N(CCN(C)C)S(=O)(=O)c2ccc3cc(Cl)ccc3c2)C1=O [GTC000042A]",
    "pIC50": 7.62
  },
  {
    "compound": "C[C@@H](C(=O)N1CCOCC1)N1CC[C@H](N(c2ccc(F)cc2)S(=O)(=O)c2ccc3cc(Cl)ccc3c2)C1=O [GTC000034A]",
    "pIC50": 6.77
  }
]

Task item: Consider the compound C[C@@H]1CN(C(=O)[C@H](C)N2CC[C@H](N(CC(N)=O)S(=O)(=O)c3ccc4cc(Cl)ccc4c3)C2=O)C[C@H](C)O1 [GTC000038A] and give its measured pIC50.
Reply: 7.58
